Entries and their measured ED50 follow.
# Tested on: Streptococcus pyogenes C203
# assay procedure: ED50 in mice with experimental infections (Table IV)
# Assay type: in vivo
# condition label: Streptococcus pyogenes, C203, oral, doses given 1 and 4 hours postinfection, read-out: ED50, Oral

{"columns": ["compound", "readout unit", "limit sign", "ED50"],
 "data": [
  ["CCC1OC(=O)CC(O)C(C)C(OC2OC(C)C(O)C(N(C)C)C2OC(C)=O)C(CC=O)CC(C)C(=O)C=CC(C)=CC1COC(C)=O (centres unmarked)", "mg/kg", "=", 137],
  ["CCC1OC(=O)CC(O)C(C)C(OC2OC(C)C(O)C(N(C)C)C2O)C(CC=O)CC(C)C(=O)C=CC(C)=CC1COC(=O)CC(C)C (centres unmarked)", "mg/kg", ">", 150],
  ["CCC1OC(=O)CC(O)C(C)C(OC2OC(C)C(O)C(N(C)C)C2O)C(CC=O)CC(C)C(=O)C=CC(C)=CC1COC(=O)COc1ccccc1 (centres unmarked)", "mg/kg", ">", 150],
  ["CCC1OC(=O)CC(O)C(C)C(OC2OC(C)C(O)C(N(C)C)C2O)C(CC=O)CC(C)C(=O)C=CC(C)=CC1COC(=O)Cc1cccnc1 (centres unmarked)", "mg/kg", "=", 150],
  ["CCC1OC(=O)CC(O)C(C)C(OC2OC(C)C(O)C(N(C)C)C2O)C(CC=O)CC(C)C(=O)C=CC(C)=CC1COC(=O)Cc1ccccc1 (centres unmarked)", "mg/kg", ">", 100],
  ["CCC1OC(=O)CC(O)C(C)C(OC2OC(C)C(O)C(N(C)C)C2OC(C)=O)C(CC=O)CC(C)C(=O)C=CC(C)=CC1CO (centres unmarked)", "mg/kg", ">", 150],
  ["CCC1OC(=O)CC(O)C(C)C(OC2OC(C)C(O)C(N(C)C)C2O)C(CC=O)CC(C)C(=O)C=CC(C)=CC1COS(=O)(=O)c1ccc(C)cc1 (centres unmarked)", "mg/kg", "=", 146],
  ["CCC1OC(=O)CC(O)C(C)C(OC2OC(C)C(O)C(N(C)C)C2O)C(CC=O)CC(C)C(=O)C=CC(C)=CC1COC(=O)C(C)(C)C (centres unmarked)", "mg/kg", ">", 100],
  ["CCC1OC(=O)CC(O)C(C)C(OC2OC(C)C(O)C(N(C)C)C2O)C(CC=O)CC(C)C(=O)C=CC(C)=CC1COC(C)=O (centres unmarked)", "mg/kg", "=", 109],
  ["CCC1OC(=O)CC(O)C(C)C(OC2OC(C)C(O)C(N(C)C)C2O)C(CC=O)CC(C)C(=O)C=CC(C)=CC1COC(=O)NCc1ccccc1 (centres unmarked)", "mg/kg", ">", 100],
  ["CCC1OC(=O)CC(O)C(C)C(OC2OC(C)C(O)C(N(C)C)C2O)C(CC=O)CC(C)C(=O)C=CC(C)=CC1COC(=O)c1ccccc1 (centres unmarked)", "mg/kg", "=", 136],
  ["CCC(=O)OC1C(OC2C(CC=O)CC(C)C(=O)C=CC(C)=CC(COC(C)=O)C(CC)OC(=O)CC(O)C2C)OC(C)C(O)C1N(C)C (centres unmarked)", "mg/kg", ">", 150],
  ["CCC(=O)OC1C(C)OC(OC2C(CC=O)CC(C)C(=O)C=CC(C)=CC(CO)C(CC)OC(=O)CC(O)C2C)C(OC(=O)CC)C1N(C)C (centres unmarked)", "mg/kg", "=", 167],
  ["CCC1OC(=O)CC(O)C(C)C(OC2OC(C)C(O)C(N(C)C)C2OC(C)=O)C(CC=O)CC(C)C(=O)C=CC(C)=CC1COC(=O)Cc1ccccc1 (centres unmarked)", "mg/kg", "=", 155]
]}

====

# System: Streptococcus pyogenes C203
# assay procedure: MIC, standard agar-dilution assay (Table II)
# Assay type: cell-based
# Set-up: unit not given here
Catalogue of minimal inhibitory concentration (MIC) values

{"columns": ["compound", "system", "minimal inhibitory concentration (MIC)"],
 "data": [
  ["CCC1OC(=O)CC(O)C(C)C(OC2OC(C)C(O)C(N(C)C)C2OC(=O)Cc2ccccc2)C(CC=O)CC(C)C(=O)C=CC(C)=CC1COC(=O)Cc1ccccc1 (stereo not shown)", "Streptococcus pyogenes C203", 0.06],
  ["CCC1OC(=O)CC(O)C(C)C(OC2OC(C)C(O)C(N(C)C)C2OC(C)=O)C(CC=O)CC(C)C(=O)C=CC(C)=CC1COC(=O)Cc1ccc(Cl)cc1 (stereo not shown)", "Streptococcus pyogenes C203", 0.125],
  ["CCC1OC(=O)CC(O)C(C)C(OC2OC(C)C(O)C(N(C)C)C2OC(C)=O)C(CC=O)CC(C)C(=O)C=CC(C)=CC1COC(=O)CCc1ccccc1 (stereo not shown)", "Streptococcus pyogenes C203", 0.06],
  ["CCC1OC(=O)CC(O)C(C)C(OC2OC(C)C(O)C(N(C)C)C2OC(C)=O)C(CC=O)CC(C)C(=O)C=CC(C)=CC1COC(C)=O (stereo not shown)", "Streptococcus pyogenes C203", 0.25],
  ["CCC1OC(=O)CC(O)C(C)C(OC2OC(C)C(O)C(N(C)C)C2O)C(CC=O)CC(C)C(=O)C=CC(C)=CC1COC(=O)C(C)(C)C (stereo not shown)", "Streptococcus pyogenes C203", 0.125],
  ["CCCCCCCC(=O)OCC1C=C(C)C=CC(=O)C(C)CC(CC=O)C(OC2OC(C)C(OC(C)=O)C(N(C)C)C2OC(C)=O)C(C)C(O)CC(=O)OC1CC (stereo not shown)", "Streptococcus pyogenes C203", 0.5],
  ["CCC(=O)OC1C(C)OC(OC2C(CC=O)CC(C)C(=O)C=CC(C)=CC(CO)C(CC)OC(=O)CC(O)C2C)C(OC(=O)CC)C1N(C)C (stereo not shown)", "Streptococcus pyogenes C203", 0.5],
  ["CCC1OC(=O)CC(O)C(C)C(OC2OC(C)C(OC(C)=O)C(N(C)C)C2OC(C)=O)C(CC=O)CC(C)C(=O)C=CC(C)=CC1COS(=O)(=O)c1ccc(C)cc1 (stereo not shown)", "Streptococcus pyogenes C203", 0.06],
  ["CCC1OC(=O)CC(O)C(C)C(OC2OC(C)C(O)C(N(C)C)C2O)C(CC=O)CC(C)C(=O)C=CC(C)=CC1COC(=O)NCc1ccccc1 (stereo not shown)", "Streptococcus pyogenes C203", 0.06],
  ["CCC1OC(=O)CC(O)C(C)C(OC2OC(C)C(OC(C)=O)C(N(C)C)C2OC(C)=O)C(CC=O)CC(C)C(=O)C=CC(C)=CC1COC(=O)C(Cl)Cl (stereo not shown)", "Streptococcus pyogenes C203", 0.25],
  ["CCC1OC(=O)CC(O)C(C)C(OC2OC(C)C(OC(C)=O)C(N(C)C)C2OC(C)=O)C(CC=O)CC(C)C(=O)C=CC(C)=CC1COC(=O)c1ccccc1 (stereo not shown)", "Streptococcus pyogenes C203", 0.125],
  ["CCC1OC(=O)CC(O)C(C)C(OC2OC(C)C(O)C(N(C)C)C2OC(C)=O)C(CC=O)CC(C)C(=O)C=CC(C)=CC1CO (stereo not shown)", "Streptococcus pyogenes C203", 0.5],
  ["CCC1OC(=O)CC(O)C(C)C(OC2OC(C)C(O)C(N(C)C)C2OC(C)=O)C(CC=O)CC(C)C(=O)C=CC(C)=CC1COC(=O)NCc1ccccc1 (stereo not shown)", "Streptococcus pyogenes C203", 0.125],
  ["CCC1OC(=O)CC(O)C(C)C(OC2OC(C)C(O)C(N(C)C)C2O)C(CC=O)CC(C)C(=O)C=CC(C)=CC1COS(=O)(=O)c1ccc(NC(C)=O)cc1 (stereo not shown)", "Streptococcus pyogenes C203", 0.125],
  ["CCC1OC(=O)CC(O)C(C)C(OC2OC(C)C(O)C(N(C)C)C2OC(C)=O)C(CC=O)CC(C)C(=O)C=CC(C)=CC1COC(=O)C=Cc1ccccc1 (stereo not shown)", "Streptococcus pyogenes C203", 0.25],
  ["CCC1OC(=O)CC(O)C(C)C(OC2OC(C)C(O)C(N(C)C)C2OC(=O)Cc2ccccc2)C(CC=O)CC(C)C(=O)C=CC(C)=CC1CO (stereo not shown)", "Streptococcus pyogenes C203", 0.25],
  ["CCC1OC(=O)CC(O)C(C)C(OC2OC(C)C(O)C(N(C)C)C2O)C(CC=O)CC(C)C(=O)C=CC(C)=CC1COC(C)=O (stereo not shown)", "Streptococcus pyogenes C203", 0.125],
  ["CCCC(=O)OCC1C=C(C)C=CC(=O)C(C)CC(CC=O)C(OC2OC(C)C(O)C(N(C)C)C2O)C(C)C(O)CC(=O)OC1CC (stereo not shown)", "Streptococcus pyogenes C203", 0.25],
  ["CCC1OC(=O)CC(O)C(C)C(OC2OC(C)C(OC(C)=O)C(N(C)C)C2OC(C)=O)C(CC=O)CC(C)C(=O)C=CC(C)=CC1COC(=O)CSc1ccc(Cl)c(Cl)c1 (stereo not shown)", "Streptococcus pyogenes C203", 0.5],
  ["CCC1OC(=O)CC(O)C(C)C(OC2OC(C)C(O)C(N(C)C)C2OC(C)=O)C(CC=O)CC(C)C(=O)C=CC(C)=CC1COC(=O)CCCCc1ccccc1 (stereo not shown)", "Streptococcus pyogenes C203", 0.25],
  ["CCC1OC(=O)CC(O)C(C)C(OC2OC(C)C(O)C(N(C)C)C2O)C(CC=O)CC(C)C(=O)C=CC(C)=CC1COC(=O)c1ccc2ccccc2c1 (stereo not shown)", "Streptococcus pyogenes C203", 0.5],
  ["CCC1OC(=O)CC(O)C(C)C(OC2OC(C)C(OC(=O)CC(C)C)C(N(C)C)C2OC(C)=O)C(CC=O)CC(C)C(=O)C=CC(C)=CC1COC(C)=O (stereo not shown)", "Streptococcus pyogenes C203", 0.25]
]}

Origin of measurements: patent US4401660A
